This section presents compounds with their documented MTT.3µM values.
System: COS-1 cells
ASSAY_METHOD_TEXT: MTT assay (cell viability)
Format: cell-based
APPLIED_CONDITIONS: 3 µM; cell viability
Number, no unit, nothing else.

Guide cases for MTT.3µM, answers given:
{"COMPOUND": "CCN(CC)c1ccc(CN(C(=O)C(F)(F)F)c2c(-c3ccccc3)noc2C)cc1 [Compound 30c]", "MEASURED_TARGET": "COS-1 cells", "OBSERVED_VALUE": 97.78}
{"COMPOUND": "Cc1onc(-c2ccccc2)c1C(=O)Nc1ccc2oc(-c3ccccc3)cc(=O)c2c1", "MEASURED_TARGET": "COS-1 cells", "OBSERVED_VALUE": 101.99}

Field MTT.3µM (entry CCN(CC)c1ccc(/C=N/c2c(-c3ccccc3)noc2C)c(O)c1 ) reads 100.5

Field MTT.3µM (entry CCN(CC)c1ccc(CNc2c(-c3ccccc3)noc2C)cc1 ) reads 102.56

---

MEASURED_TARGET: GATA4–NKX2-5 transcriptional synergy (Mus musculus, UniProt P42582+Q08369)
Construct: expressed in transfected cells; host or cells: COS-1
Sequence (Q08369 whole entry): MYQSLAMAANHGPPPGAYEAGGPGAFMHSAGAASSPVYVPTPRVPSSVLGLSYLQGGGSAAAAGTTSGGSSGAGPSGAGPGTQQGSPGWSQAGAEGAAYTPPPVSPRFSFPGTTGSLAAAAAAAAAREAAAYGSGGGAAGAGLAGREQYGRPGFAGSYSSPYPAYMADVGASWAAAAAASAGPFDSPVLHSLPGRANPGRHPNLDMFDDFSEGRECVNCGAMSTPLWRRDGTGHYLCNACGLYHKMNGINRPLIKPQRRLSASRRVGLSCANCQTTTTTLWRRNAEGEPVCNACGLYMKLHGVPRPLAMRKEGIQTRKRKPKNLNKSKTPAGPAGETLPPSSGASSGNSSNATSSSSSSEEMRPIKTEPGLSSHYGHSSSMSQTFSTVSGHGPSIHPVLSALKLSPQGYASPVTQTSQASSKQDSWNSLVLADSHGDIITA
Sequence (P42582 whole entry): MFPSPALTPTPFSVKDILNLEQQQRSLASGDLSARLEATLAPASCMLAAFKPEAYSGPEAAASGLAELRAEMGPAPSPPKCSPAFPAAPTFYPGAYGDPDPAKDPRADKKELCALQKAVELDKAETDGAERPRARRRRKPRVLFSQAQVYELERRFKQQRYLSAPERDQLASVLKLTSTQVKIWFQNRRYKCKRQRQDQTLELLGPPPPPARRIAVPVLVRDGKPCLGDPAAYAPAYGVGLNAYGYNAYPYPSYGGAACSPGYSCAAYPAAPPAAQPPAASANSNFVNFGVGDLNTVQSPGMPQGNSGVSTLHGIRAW
ASSAY_METHOD_TEXT: GATA4–NKX2-5 transcriptional synergy luciferase reporter assay (3xNKE reporter, COS-1 cells)
Format: cell-based
APPLIED_CONDITIONS: COS-1; compound 3 µM; luciferase reporter activity; spread in separate STDEV column
READOUT_LABEL: activity at 3 µM (%)
Please reply with the bare figure in % and do not write the unit itself.

Guide cases for activity at 3 µM, answers given:
{"MOLECULE": "CCN(CC)c1ccc(NC(=O)c2cc(C)sc2-c2cc(C)on2)cc1 [Compound 47l]", "OBSERVED_VALUE": 105}
{"MOLECULE": "CCN(CC)c1ccc(NC(=O)c2c(C)noc2-c2cc(CCOc3ccccn3)on2)cc1", "OBSERVED_VALUE": 97.4}
{"MOLECULE": "Cc1onc(-c2ccccc2)c1C(=O)Nc1ccc2c(c1)C(=O)CCC2", "OBSERVED_VALUE": 107}
{"MOLECULE": "CC(=O)COC(=O)c1ccc(NC(=O)c2c(-c3ccccc3)noc2C)cc1", "OBSERVED_VALUE": 85.8}
{"MOLECULE": "CCN(CC)c1ccc(NC(=O)c2c(-c3cc(Br)cs3)noc2C)cc1 [Compound 39l]", "OBSERVED_VALUE": 91}
{"MOLECULE": "Cc1onc(-c2ccc(Br)s2)c1C(=O)Nc1ccc(C(C)C)cc1", "OBSERVED_VALUE": 99.4}

Field activity at 3 µM (entry N#Cc1ccc(NC(=O)c2cc(-c3ccncc3)[nH]n2)cc1 ) reads 96.6

Field activity at 3 µM (entry CCN(CC)c1ccc(NC(=O)c2cn(C)cc2-c2cc(C)on2)cc1 [Compound 47m] ) reads 116

Field activity at 3 µM (entry Cc1onc(-c2ccccc2)c1C(=O)Nc1ccc(C(=O)OCCCC#N)cc1 [Compound 10b] ) reads 93

Field activity at 3 µM (entry Cc1onc(-c2ccccc2)c1C(=O)Nc1ccc(C(=O)OCCN(C)C)cc1 [Compound 10d] ) reads 99.6

Field activity at 3 µM (entry CCN(CC)c1ccc(NC(=O)c2c(C)noc2-c2cc(-c3ccco3)on2)cc1 ) reads 108

Field activity at 3 µM (entry Cc1onc(-c2ccccc2)c1C(=O)Nc1ccc(C(=O)OCCCCC#N)cc1 [Compound 10c] ) reads 101

Field activity at 3 µM (entry CCN(CC)c1ccc(NC(=O)c2c(C)noc2-c2noc(C)c2C)cc1 ) reads 86

---

MEASURED_TARGET: GATA4 transcriptional activity (Mus musculus, UniProt Q08369)
Construct: expressed in transfected cells; host or cells: COS-1
Sequence (Q08369 whole entry): as the sequence (Q08369 whole entry) above
ASSAY_METHOD_TEXT: GATA4 luciferase reporter assay (tandem GATA-site reporter, COS-1 cells)
Format: cell-based
APPLIED_CONDITIONS: COS-1; compound 10 µM; luciferase reporter activity; spread in separate STDEV column
Protocol: To screen compounds for the GATA4–NKX2-5 interaction, we have developed a luciferase reporter assay based on their property to activate gene transcription synergistically through the NKX2-5 binding site on DNA.[28] […] Raw luciferase data were analyzed in Excel, and clear outliers were removed from triplicates by using the Grubb’s test. […] Statistical significance of luciferase reporter assay data was evaluated by randomized block analysis of variance followed by Dunnett’s post hoc test. […]
READOUT_LABEL: activity at 10 µM
Answer shape: numeric part, then the unit.

Guide cases for activity at 10 µM, answers given:
{"MOLECULE": "CCN(CC)c1ccc(NC(=O)c2c(-c3cc(C)on3)noc2C)cc1 [Compound 39o]", "OBSERVED_VALUE": "101%"}
{"MOLECULE": "Cc1onc(-c2ccccc2)c1C(=O)Nc1ccc(C(=O)OCCC#N)cc1 [Compound 76]", "OBSERVED_VALUE": "73.4%"}

Attention now turns to another entry.
Field activity at 10 µM (entry Cc1onc(-c2ccccc2)c1C(=O)Nc1ccc(C(=O)OCCCCC#N)cc1 [Compound 10c] ) reads 102%

---

This section presents compounds with their documented MTT.3µM values.
System: COS-1 cells
ASSAY_METHOD_TEXT: MTT assay (cell viability)
Assay type: cell-based
APPLIED_CONDITIONS: 3 µM; cell viability
Number, no unit, nothing else.

Guide cases for MTT.3µM, answers given:
{"COMPOUND": "CCN(CC)c1ccc(NC(=O)c2c(-c3ccsc3)noc2C)cc1 [Compound 39m]", "MEASURED_TARGET": "COS-1 cells", "OBSERVED_VALUE": 98.85}
{"COMPOUND": "C=CCN(Cc1ccc(N(CC)CC)cc1)c1c(-c2ccccc2)noc1C [Compound 30b]", "MEASURED_TARGET": "COS-1 cells", "OBSERVED_VALUE": 97.12}
{"COMPOUND": "CCN(c1ccc(NC(=O)c2c(-c3ccccc3)noc2C)cc1)C(C)C [Compound 4i]", "MEASURED_TARGET": "COS-1 cells", "OBSERVED_VALUE": 98.4}
{"COMPOUND": "CCN(CC)c1ccc(NC(=O)c2c(-c3ccccc3)nnn2CCc2ccccc2)cc1 [Compound 71]", "MEASURED_TARGET": "COS-1 cells", "OBSERVED_VALUE": 98.93}

Field MTT.3µM (entry COc1ccc(-c2cc(NC(=O)c3ccc(C(C)(C)C)cc3)n[nH]2)cc1 [Compound 72] ) reads 101.15

Field MTT.3µM (entry CN(C)c1ccc(NCc2c[nH]nc2-c2ccc(F)cc2)cc1 [SI78] ) reads 102.53

Field MTT.3µM (entry Cc1onc(-c2ccccc2)c1C(=O)Nc1ccc(OCc2ccccc2)cc1 [SI8] ) reads 102.65

Field MTT.3µM (entry CCN(CC)c1ccc(NC(=O)c2csc([N+](=O)[O-])c2)cc1 [Compound 47u] ) reads 102.26
